All figures here come from PubChem BioAssay (NCI).

protocol_text: NCI Yeast Anticancer Drug Screen. Data for the cln2 rad14 strain (AID 165);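 further: 0% = growth equal to vehicle treated cultures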
condition_details: S. cerevisiae cln2 rad14 strain, at 50.0 µM (retest, dose inferred, filed as 5.0)
Compounds without any hit were thinned out: in the full panel of roughly 79,000, 15% have a hit. Calls of active or inactive are those of the source. No stated cut-off is given here; in the data, active means growth inhibition above about 70%; inactive means the rest.
Thanks in advance; please answer with one of these: 1.0 for active, 0.0 for inactive

Answered examples (3):
CCOC(=O)c1cnccc1CC1(C#N)c2ccccc2C=CN1C(=O)c1ccccc1 (stereo not drawn) :: 0.0
CN(C)CCC(=O)N1C/C(=C\c2ccc(Cl)c(Cl)c2)C(=O)/C(=C/c2ccc(Cl)c(Cl)c2)C1 :: 1.0
N#CS/C(Cl)=C(/C(Cl)=C(Cl)Cl)[N+](=O)[O-] :: 1.0

Query :: Recorded test outcome, item "O=C(NO)C(=O)Nc1cc(Cl)ccc1Cl"
Result :: 1.0

Query :: What did this assay record as the result for COc1ccccc1C1c2cc3c(cc2OC(C)(O)C1C)OCO3 (stereo not drawn) ?
Result :: 0.0

Query :: Kindly provide the recorded test outcome for the following molecule: "CCCCCCCCCCCC(=O)OCCOP(=O)(OCC)OCC"
Result :: 1.0

Query :: Name the outcome recorded for "CCOc1c(N=Nc2ccc(Cl)cc2)c(-c2ccccc2)nn1C(N)=S" in the assay.
Result :: 1.0

Query :: For "CCCCCCCCCCCCCCCCNCCCCCCCC(=O)O" , which call appears in the assay record?
Result :: 0.0
